methodSummary: Antioxidant activity, oxygen radical absorbance capacity fluorescein (ORAC-FL) method
conditionParameters: samples 1–10 μM
Recorded log10 of ORAC by entry
measuredAttribute: log10 of ORAC (log10 of the value in trolox equivalents)

{"columns": ["compound", "resultValue"],
 "data": [
  ["C[C@@H](NC(=O)/C=C/c1cccc(O)c1)c1nc2c(cnn2C2CCCC2)c(=O)[nH]1", 0.52],
  ["C[C@@H](NC(=O)/C=C/c1ccc(C(F)(F)F)cc1)c1nc2c(cnn2C2CCCC2)c(=O)[nH]1", -1.70],
  ["C[C@@H](NC(=O)Cc1ccc(O)c(O)c1)c1nc2c(cnn2C2CCCC2)c(=O)[nH]1", 0.41],
  ["COc1ccc(/C=C/C(=O)N[C@H](C)c2nc3c(cnn3C3CCCC3)c(=O)[nH]2)cc1OC", -0.64],
  ["Cc1c(C)c2c(c(C)c1O)CCC(C)(C(=O)N[C@H](C)c1nc3c(cnn3C3CCCC3)c(=O)[nH]1)O2 (stereo partly drawn)", -0.62],
  ["C[C@@H](NC(=O)/C=C/c1ccc(N(C)C)cc1)c1nc2c(cnn2C2CCCC2)c(=O)[nH]1", 0.00]
]}
